- run description: Pharmacokinetic study of PDC in rat plasma after oral administration of pure PDC or IRE (LC-MS/MS)
- Format: in vivo, Sprague-Dawley rats
- condition context: male, Sprague-Dawley, PDC in rat plasma, 84 mg/kg PDC (IRE dosage equivalent to PDC dosage), n = 6, mean ± SD

compound	Cmax
C[C@@H]1CC[C@]2(C(=O)O[C@@H]3O[C@H](CO)[C@@H](O)[C@H](O)[C@H]3O)CC[C@]3(C)C(=CC[C@@H]4[C@@]5(C)CC[C@H](O)[C@@](C)(CO)[C@@H]5CC[C@]43C)[C@@H]2[C@]1(C)O [PDC, Pedunculoside]	174 ng/mL

====

- run description: Pharmacokinetic study of PDC in rat plasma after oral administration of pure PDC or IRE (LC-MS/MS)
- Assay type: in vivo, Sprague-Dawley rats
- condition context: male, Sprague-Dawley, PDC in rat plasma, 42 mg/kg PDC (IRE dosage equivalent to PDC dosage), n = 6, mean ± SD, read-out: t1/2z (converted)

compound	quantity unit	half-life
C[C@@H]1CC[C@]2(C(=O)O[C@@H]3O[C@H](CO)[C@@H](O)[C@H](O)[C@H]3O)CC[C@]3(C)C(=CC[C@@H]4[C@@]5(C)CC[C@H](O)[C@@](C)(CO)[C@@H]5CC[C@]43C)[C@@H]2[C@]1(C)O [PDC, Pedunculoside]	h	1.73

====

- run description: Pharmacokinetic study of PDC in rat plasma after oral administration of pure PDC or IRE (LC-MS/MS)
- Format: in vivo, Sprague-Dawley rats
- condition context: male, Sprague-Dawley, PDC in rat plasma, 84 mg/kg PDC (IRE dosage equivalent to PDC dosage), n = 6, mean ± SD
- Procedure: The analytical procedures described in Section 3.3 were performed to quantify PDC in rat plasma samples obtained from 24 male Sprague-Dawley rats. Out of these rats, 12 were orally administered with pure PDC, whereas 12 were orally administered with IRE. […] The pharmacokinetic parameters including Cmax, Tmax, t1/2z, AUC0–t, AUC0–∞, CLz/F, and Vz/F were calculated by non-compartmental method using the DAS 2.0 pharmacokinetics program (Chinese Pharmacology Society, Beijing, China). […]

molecule	AUC(0-t)
C[C@@H]1CC[C@]2(C(=O)O[C@@H]3O[C@H](CO)[C@@H](O)[C@H](O)[C@H]3O)CC[C@]3(C)C(=CC[C@@H]4[C@@]5(C)CC[C@H](O)[C@@](C)(CO)[C@@H]5CC[C@]43C)[C@@H]2[C@]1(C)O [PDC, Pedunculoside]	661 ng·h/mL

====

- run description: Pharmacokinetic study of PDC in rat plasma after oral administration of pure PDC or IRE (LC-MS/MS)
- Format: in vivo, Sprague-Dawley rats
- condition context: male, Sprague-Dawley, PDC in rat plasma, 84 mg/kg PDC (IRE dosage equivalent to PDC dosage), n = 6, mean ± SD, read-out: MRT0–t
- Protocol: The analytical procedures described in Section 3.3 were performed to quantify PDC in rat plasma samples obtained from 24 male Sprague-Dawley rats. Out of these rats, 12 were orally administered with pure PDC, whereas 12 were orally administered with IRE. […] The pharmacokinetic parameters including Cmax, Tmax, t1/2z, AUC0–t, AUC0–∞, CLz/F, and Vz/F were calculated by non-compartmental method using the DAS 2.0 pharmacokinetics program (Chinese Pharmacology Society, Beijing, China). […]
measurement kind: MRT last (h)

compound	measurement kind	quantity unit	result value
C[C@@H]1CC[C@]2(C(=O)O[C@@H]3O[C@H](CO)[C@@H](O)[C@H](O)[C@H]3O)CC[C@]3(C)C(=CC[C@@H]4[C@@]5(C)CC[C@H](O)[C@@](C)(CO)[C@@H]5CC[C@]43C)[C@@H]2[C@]1(C)O [PDC, Pedunculoside]	MRT last	h	3.08
